assay: Antifungal assay, mycelium growth on PDA containing the chemical; settings: G. trabeum; Example 1, FIG. 1(A); read-out: IC50 (concentration that inhibited 50% of the mycelium growth)
pIC50: −log10 of the molar value.
Assay readout: pIC50

INSERT INTO assay_data (molecule, number) VALUES
  ('CCCCCCCCOC(=O)c1cc(O)c(O)c(O)c1 [Octyl gallate, octyl gallate]', 3.62),
  ('O=CC=Cc1ccccc1', 2.98);

----------
Listed here: items and their measured Antifungal index (%).
assay: Antifungal assay, mycelium growth on PDA containing the chemical; details: T. versicolor; 100 μg/ml; Table 1
Assay readout: Antifungal index (%)

INSERT INTO results (compound, number) VALUES
  ('CCCOC(=O)c1cc(O)c(O)c(O)c1 [Propyl gallate, propyl gallate]', 0),
  ('CCCCCCCCOC(=O)c1cc(O)c(O)c(O)c1 [Octyl gallate, octyl gallate]', 69),
  ('Cc1cc(C(C)(C)C)c(O)c(C(C)(C)C)c1 [BHT, Butylated hydroxyltoluene, reference compound]', 23),
  ('O=CC=Cc1ccccc1', 34);

Provenance of the data: patent US20080132569A1
